tested_on: T1, human tissue factor pathway inhibitor (TFPI) (human, UniProt P10646 29-304, limits assumed)
T1 construct: bought; also called hTFPI; human TFPI
T1 sequence (looked up): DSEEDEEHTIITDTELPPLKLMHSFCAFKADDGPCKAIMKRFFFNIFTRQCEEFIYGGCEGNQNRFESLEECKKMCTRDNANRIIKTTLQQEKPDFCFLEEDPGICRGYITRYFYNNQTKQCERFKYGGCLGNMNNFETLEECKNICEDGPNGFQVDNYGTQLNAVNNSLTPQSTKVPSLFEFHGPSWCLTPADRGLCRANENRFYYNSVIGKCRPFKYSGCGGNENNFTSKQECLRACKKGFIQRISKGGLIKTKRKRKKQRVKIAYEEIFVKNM
run_description: competitive ELISA
// values below are reported variant/HC_D62R

- binder: "4B7 HC N32D+D62Q+H107M+Y112D/LC S32R+D33F+N35I (Fab, V domains shown) VH: QVQLQQSGPGLVKPSQTLSLTCAISGDSVSSDSAAWSWIRQSPGRGLEWLGIIYKRSKWYNQYAVSVKSRITINPDTSKNQFSLQLNSVTPEDTAVYYCARWHSDKMWGFDDWGQGTLVTVSS VL: DIVMTQSPLSLPVTPGEPASISCRSSQSLVFRFGITYLNWYLQKPGQSPQLLIYKGSNRASGVPDRFSGSGSGTDFTLKISRVEAEDVGVYYCQQYDSYPLTFGQGTKVEIKR"
  value_unit: "ratio"
  variant/HC_D62R: 24.7
- binder: "4B7 HC N32D+D62R+Y112D/LC S32R+D33F+N35I+K44R+D97T (Fab, V domains shown) VH: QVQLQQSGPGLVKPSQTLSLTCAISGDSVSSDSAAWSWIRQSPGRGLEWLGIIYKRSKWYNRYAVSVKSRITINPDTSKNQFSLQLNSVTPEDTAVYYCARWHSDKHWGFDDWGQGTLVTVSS VL: DIVMTQSPLSLPVTPGEPASISCRSSQSLVFRFGITYLNWYLQRPGQSPQLLIYKGSNRASGVPDRFSGSGSGTDFTLKISRVEAEDVGVYYCQQYTSYPLTFGQGTKVEIKR"
  value_unit: "ratio"
  variant/HC_D62R: 26

meta.source: patent USRE47150
